test.description: Placebo controlled, dose escalation pharmacokinetic study of oral (Z)-Endoxifen capsules (serum endoxifen; incl. accumulation ratios and dose linearity)
Assay type: in vivo, human
measurement.setup: female, human, serum, oral, 1 mg, Day 1; 1 mg; N = 5; read-out: AUC24hr, Mean
measured.quantity: AUC(0-t) (ng·h/mL)
Supply the numeric figure in ng·h/mL, leaving out any unit text.

Sample CC/C(=C(\c1ccc(O)cc1)c1ccc(OCCNC)cc1)c1ccccc1 [(Z)-Endoxifen] ; AUC(0-t) observed: 158

----------
test.description: Placebo controlled, dose escalation pharmacokinetic study of oral (Z)-Endoxifen capsules (serum endoxifen; incl. accumulation ratios and dose linearity)
Type: in vivo, human
measurement.setup: female, human, serum, oral, 1 mg; Day 4 Hr 72; read-out: Serum concentration, Max
Source text: An objective of the study was to assess the safety and tolerability of oral (Z)-Endoxifen when administered […] orally as a capsule to healthy female volunteers. A secondary objective was to assess the pharmacokinetics of multiple doses of oral (Z)-Endoxifen in the subjects. Generally, healthy female volunteers aged ≥18 years and ≤65 years were enrolled. 24 participants were enrolled in 3 cohorts and will be administered study drug orally. […]
measured.quantity: concentration at 72 h (nM)
Supply the numeric figure in nM, leaving out any unit text.

Sample CC/C(=C(\c1ccc(O)cc1)c1ccc(OCCNC)cc1)c1ccccc1 [(Z)-Endoxifen] ; concentration at 72 h observed: 10.7

----------
test.description: Placebo controlled, dose escalation pharmacokinetic study of oral (Z)-Endoxifen capsules (serum endoxifen; incl. accumulation ratios and dose linearity)
Assay type: in vivo, human
measurement.setup: female, human, serum, oral, 2 mg, Day 1; 2 mg; N 6; read-out: Cmax, GeoMean
measured.quantity: Cmax (ng/mL)
Supply the numeric figure in ng/mL, leaving out any unit text.

Sample CC/C(=C(\c1ccc(O)cc1)c1ccc(OCCNC)cc1)c1ccccc1 [(Z)-Endoxifen] ; Cmax observed: 17.3

----------
test.description: Placebo controlled, dose escalation pharmacokinetic study of oral (Z)-Endoxifen capsules (serum endoxifen; incl. accumulation ratios and dose linearity)
Assay type: in vivo, human
measurement.setup: female, human, serum, po, 2 mg, Day 21; dose 2 mg oral once daily; GeoMean, N 6; read-out: volume of distribution (Vd/F)
From the text: An objective of the study was to assess the safety and tolerability of oral (Z)-Endoxifen when administered […] orally as a capsule to healthy female volunteers. A secondary objective was to assess the pharmacokinetics of multiple doses of oral (Z)-Endoxifen in the subjects. Generally, healthy female volunteers aged ≥18 years and ≤65 years were enrolled. 24 participants were enrolled in 3 cohorts and will be administered study drug orally. […]
measured.quantity: Vd/F (L)
Supply the numeric figure in L, leaving out any unit text.

Sample CC/C(=C(\c1ccc(O)cc1)c1ccc(OCCNC)cc1)c1ccccc1 [(Z)-Endoxifen] ; Vd/F observed: 138

----------
test.description: Placebo controlled, dose escalation pharmacokinetic study of oral (Z)-Endoxifen capsules (serum endoxifen; incl. accumulation ratios and dose linearity)
Type: in vivo, human
measurement.setup: female, human, serum, po, 2 mg, Day 21; dose 2 mg oral once daily; GeoMean, N 6; read-out: AUC24hr
measured.quantity: AUC(0-t) (ng·h/mL)
Supply the numeric figure in ng·h/mL, leaving out any unit text.

Sample CC/C(=C(\c1ccc(O)cc1)c1ccc(OCCNC)cc1)c1ccccc1 [(Z)-Endoxifen] ; AUC(0-t) observed: 897

----------
test.description: Placebo controlled, dose escalation pharmacokinetic study of oral (Z)-Endoxifen capsules (serum endoxifen; incl. accumulation ratios and dose linearity)
Assay type: in vivo, human
measurement.setup: female, human, serum, oral, 1 mg, Day 1; 1 mg; N = 5; read-out: AUC0-inf, Mean
measured.quantity: AUC(0-inf) (ng·h/mL)
Supply the numeric figure in ng·h/mL, leaving out any unit text.

Sample CC/C(=C(\c1ccc(O)cc1)c1ccc(OCCNC)cc1)c1ccccc1 [(Z)-Endoxifen] ; AUC(0-inf) observed: 567

----------
test.description: Placebo controlled, dose escalation pharmacokinetic study of oral (Z)-Endoxifen capsules (serum endoxifen; incl. accumulation ratios and dose linearity)
Type: in vivo, human
measurement.setup: female, human, serum, po, 4 mg, Day 1; dose 4 mg oral; Median, N 6; read-out: apparent terminal half life (t½) (converted)
measured.quantity: half-life
Put down the number, then write its unit next to it.

Sample CC/C(=C(\c1ccc(O)cc1)c1ccc(OCCNC)cc1)c1ccccc1 [(Z)-Endoxifen] ; half-life observed: 39.9 h

----------
test.description: Placebo controlled, dose escalation pharmacokinetic study of oral (Z)-Endoxifen capsules (serum endoxifen; incl. accumulation ratios and dose linearity)
Assay type: in vivo, human
measurement.setup: female, human, serum, po, 4 mg, Day 1; dose 4 mg oral; Mean, N 6; read-out: Cmax
measured.quantity: Cmax
Put down the number, then write its unit next to it.

Sample CC/C(=C(\c1ccc(O)cc1)c1ccc(OCCNC)cc1)c1ccccc1 [(Z)-Endoxifen] ; Cmax observed: 32.5 ng/mL

----------
test.description: Placebo controlled, dose escalation pharmacokinetic study of oral (Z)-Endoxifen capsules (serum endoxifen; incl. accumulation ratios and dose linearity)
Type: in vivo, human
measurement.setup: female, human, serum, oral, 2 mg, Day 1; 2 mg; N 6; read-out: AUCTlast, Mean
measured.quantity: AUC(0-t) (ng·h/mL)
Supply the numeric figure in ng·h/mL, leaving out any unit text.

Sample CC/C(=C(\c1ccc(O)cc1)c1ccc(OCCNC)cc1)c1ccccc1 [(Z)-Endoxifen] ; AUC(0-t) observed: 889

----------
test.description: Placebo controlled, dose escalation pharmacokinetic study of oral (Z)-Endoxifen capsules (serum endoxifen; incl. accumulation ratios and dose linearity)
Type: in vivo, human
measurement.setup: female, human, serum, po, 4 mg, Day 1; dose 4 mg oral; Median, N 6; read-out: Tmax
measured.quantity: Tmax

Sample CC/C(=C(\c1ccc(O)cc1)c1ccc(OCCNC)cc1)c1ccccc1 [(Z)-Endoxifen] ; Tmax observed: 5.08 h

----------
test.description: Placebo controlled, dose escalation pharmacokinetic study of oral (Z)-Endoxifen capsules (serum endoxifen; incl. accumulation ratios and dose linearity)
Type: in vivo, human
measurement.setup: female, human, serum, oral, 1 mg; Day 6 Hr 120; read-out: Serum concentration, Max
measured.quantity: concentration at 120 h (nM)
Supply the numeric figure in nM, leaving out any unit text.

Sample CC/C(=C(\c1ccc(O)cc1)c1ccc(OCCNC)cc1)c1ccccc1 [(Z)-Endoxifen] ; concentration at 120 h observed: 5.35

----------
test.description: Placebo controlled, dose escalation pharmacokinetic study of oral (Z)-Endoxifen capsules (serum endoxifen; incl. accumulation ratios and dose linearity)
Assay type: in vivo, human
measurement.setup: female, human, serum, po, 4 mg/day, Day 21; 4 mg/day oral (n = 6); read-out: AUC24 hr, Arithmetic Mean
measured.quantity: AUC(0-t) (ng·h/mL)
Supply the numeric figure in ng·h/mL, leaving out any unit text.

Sample CC/C(=C(\c1ccc(O)cc1)c1ccc(OCCNC)cc1)c1ccccc1 [(Z)-Endoxifen] ; AUC(0-t) observed: 2040

----------
test.description: Placebo controlled, dose escalation pharmacokinetic study of oral (Z)-Endoxifen capsules (serum endoxifen; incl. accumulation ratios and dose linearity)
Type: in vivo, human
measurement.setup: female, human, serum, po, 2 mg, Day 21; dose 2 mg oral once daily; Mean, N 6; read-out: AUC24hr
measured.quantity: AUC(0-t) (ng·h/mL)
Supply the numeric figure in ng·h/mL, leaving out any unit text.

Sample CC/C(=C(\c1ccc(O)cc1)c1ccc(OCCNC)cc1)c1ccccc1 [(Z)-Endoxifen] ; AUC(0-t) observed: 911

----------
test.description: Placebo controlled, dose escalation pharmacokinetic study of oral (Z)-Endoxifen capsules (serum endoxifen; incl. accumulation ratios and dose linearity)
Assay type: in vivo, human
measurement.setup: female, human, serum, po, 4 mg, Day 1; dose 4 mg oral; Mean, N 6; read-out: apparent terminal half life (t½) (converted)
measured.quantity: half-life (h)
Supply the numeric figure in h, leaving out any unit text.

Sample CC/C(=C(\c1ccc(O)cc1)c1ccc(OCCNC)cc1)c1ccccc1 [(Z)-Endoxifen] ; half-life observed: 41.6

----------
test.description: Placebo controlled, dose escalation pharmacokinetic study of oral (Z)-Endoxifen capsules (serum endoxifen; incl. accumulation ratios and dose linearity)
Type: in vivo, human
measurement.setup: female, human, serum, oral, 1 mg; Day 1 hr 0.5; read-out: Serum concentration, Max
measured.quantity: concentration at 0.5 h (nM)
Supply the numeric figure in nM, leaving out any unit text.

Sample CC/C(=C(\c1ccc(O)cc1)c1ccc(OCCNC)cc1)c1ccccc1 [(Z)-Endoxifen] ; concentration at 0.5 h observed: 5.35

----------
test.description: Placebo controlled, dose escalation pharmacokinetic study of oral (Z)-Endoxifen capsules (serum endoxifen; incl. accumulation ratios and dose linearity)
Assay type: in vivo, human
measurement.setup: female, human, serum, oral, 1 mg; Day 1 hr 2; read-out: Serum concentration, Max
measured.quantity: concentration at 2 h
Put down the number, then write its unit next to it.

Sample CC/C(=C(\c1ccc(O)cc1)c1ccc(OCCNC)cc1)c1ccccc1 [(Z)-Endoxifen] ; concentration at 2 h observed: 18.7 nM

----------
test.description: Placebo controlled, dose escalation pharmacokinetic study of oral (Z)-Endoxifen capsules (serum endoxifen; incl. accumulation ratios and dose linearity)
Type: in vivo, human
measurement.setup: female, human, serum, oral, 1 mg, Day 21; 1 mg; N = 5; read-out: Vz/F, Median
measured.quantity: Vd/F (L)
Supply the numeric figure in L, leaving out any unit text.

Sample CC/C(=C(\c1ccc(O)cc1)c1ccc(OCCNC)cc1)c1ccccc1 [(Z)-Endoxifen] ; Vd/F observed: 170
